test system: Wild type; assay: S. aureus survival, RN4220 and DeltatarO strains – OD600, teichoic acid synthesis inhibitors, primary screen (AID 463173); conditions: S. aureus RN4220 wild type/DeltatarO growth, OD600, 18 h, screened at 18.75 µg/mL (by protocol)
Hit rate of the full screen: of about 52,000 compounds, about 1,700 (3.3%) were called active. Rule as the data show it: active = survival mostly below about 52% (no sharp cut-off); inactive = mostly above about 56%. The sample as a whole holds a higher share of actives than the screen did.
Answer with one of the outcomes y = active, n = inactive

Worked set:
| compound | experimentalSystem | classLabel |
| --- | --- | --- |
| CCCCCn1c(NCc2ccc(OC)cc2)nc2ccccc21 | Wild type | y |
| Cc1cccc(OCC(=O)N2CCC(c3nc4ccccc4o3)CC2)c1C | Wild type | n |
| CCn1c(NCc2ccc(OC)c(OC)c2)nc2ccccc21 | Wild type | n |
| CN(C)c1ccc(CNC(=O)CN2C(=O)CCn3nc(-c4cn(C)c5ccccc45)cc32)cc1 | Wild type | n |
| Cc1cccc(CNC(=O)CCCN2C(=O)CCn3nc(-c4cn(C)c5ccccc45)cc32)c1 | Wild type | y |

What call does the record list for `COc1ccc(NC(=O)c2ccc(NC(=O)CCS(=O)(=O)c3cccs3)cc2)cc1Cl` ?
n

Hey, what did the test say about `CCCCCn1c(NCc2ccccc2OC)nc2ccccc21` ?
y

Hello, I am checking results. What call was entered for `Cc1cn(C)c(CC(=O)NCc2ccccc2)c1C(=O)O` ?
n

Which result was noted for this compound in the test: `CN(C)c1ccc(CNC(=O)CCCN2C(=O)CCn3nc(-c4cn(C)c5ccccc45)cc32)cc1`
y

What is the recorded call for this compound in the test? `CCCCn1c(NCc2cc(Br)ccc2O)nc2ccccc21`
n
